# systemUnderTest: human Cav2.2 (Homo sapiens)
# Sequence (Q00975 whole entry): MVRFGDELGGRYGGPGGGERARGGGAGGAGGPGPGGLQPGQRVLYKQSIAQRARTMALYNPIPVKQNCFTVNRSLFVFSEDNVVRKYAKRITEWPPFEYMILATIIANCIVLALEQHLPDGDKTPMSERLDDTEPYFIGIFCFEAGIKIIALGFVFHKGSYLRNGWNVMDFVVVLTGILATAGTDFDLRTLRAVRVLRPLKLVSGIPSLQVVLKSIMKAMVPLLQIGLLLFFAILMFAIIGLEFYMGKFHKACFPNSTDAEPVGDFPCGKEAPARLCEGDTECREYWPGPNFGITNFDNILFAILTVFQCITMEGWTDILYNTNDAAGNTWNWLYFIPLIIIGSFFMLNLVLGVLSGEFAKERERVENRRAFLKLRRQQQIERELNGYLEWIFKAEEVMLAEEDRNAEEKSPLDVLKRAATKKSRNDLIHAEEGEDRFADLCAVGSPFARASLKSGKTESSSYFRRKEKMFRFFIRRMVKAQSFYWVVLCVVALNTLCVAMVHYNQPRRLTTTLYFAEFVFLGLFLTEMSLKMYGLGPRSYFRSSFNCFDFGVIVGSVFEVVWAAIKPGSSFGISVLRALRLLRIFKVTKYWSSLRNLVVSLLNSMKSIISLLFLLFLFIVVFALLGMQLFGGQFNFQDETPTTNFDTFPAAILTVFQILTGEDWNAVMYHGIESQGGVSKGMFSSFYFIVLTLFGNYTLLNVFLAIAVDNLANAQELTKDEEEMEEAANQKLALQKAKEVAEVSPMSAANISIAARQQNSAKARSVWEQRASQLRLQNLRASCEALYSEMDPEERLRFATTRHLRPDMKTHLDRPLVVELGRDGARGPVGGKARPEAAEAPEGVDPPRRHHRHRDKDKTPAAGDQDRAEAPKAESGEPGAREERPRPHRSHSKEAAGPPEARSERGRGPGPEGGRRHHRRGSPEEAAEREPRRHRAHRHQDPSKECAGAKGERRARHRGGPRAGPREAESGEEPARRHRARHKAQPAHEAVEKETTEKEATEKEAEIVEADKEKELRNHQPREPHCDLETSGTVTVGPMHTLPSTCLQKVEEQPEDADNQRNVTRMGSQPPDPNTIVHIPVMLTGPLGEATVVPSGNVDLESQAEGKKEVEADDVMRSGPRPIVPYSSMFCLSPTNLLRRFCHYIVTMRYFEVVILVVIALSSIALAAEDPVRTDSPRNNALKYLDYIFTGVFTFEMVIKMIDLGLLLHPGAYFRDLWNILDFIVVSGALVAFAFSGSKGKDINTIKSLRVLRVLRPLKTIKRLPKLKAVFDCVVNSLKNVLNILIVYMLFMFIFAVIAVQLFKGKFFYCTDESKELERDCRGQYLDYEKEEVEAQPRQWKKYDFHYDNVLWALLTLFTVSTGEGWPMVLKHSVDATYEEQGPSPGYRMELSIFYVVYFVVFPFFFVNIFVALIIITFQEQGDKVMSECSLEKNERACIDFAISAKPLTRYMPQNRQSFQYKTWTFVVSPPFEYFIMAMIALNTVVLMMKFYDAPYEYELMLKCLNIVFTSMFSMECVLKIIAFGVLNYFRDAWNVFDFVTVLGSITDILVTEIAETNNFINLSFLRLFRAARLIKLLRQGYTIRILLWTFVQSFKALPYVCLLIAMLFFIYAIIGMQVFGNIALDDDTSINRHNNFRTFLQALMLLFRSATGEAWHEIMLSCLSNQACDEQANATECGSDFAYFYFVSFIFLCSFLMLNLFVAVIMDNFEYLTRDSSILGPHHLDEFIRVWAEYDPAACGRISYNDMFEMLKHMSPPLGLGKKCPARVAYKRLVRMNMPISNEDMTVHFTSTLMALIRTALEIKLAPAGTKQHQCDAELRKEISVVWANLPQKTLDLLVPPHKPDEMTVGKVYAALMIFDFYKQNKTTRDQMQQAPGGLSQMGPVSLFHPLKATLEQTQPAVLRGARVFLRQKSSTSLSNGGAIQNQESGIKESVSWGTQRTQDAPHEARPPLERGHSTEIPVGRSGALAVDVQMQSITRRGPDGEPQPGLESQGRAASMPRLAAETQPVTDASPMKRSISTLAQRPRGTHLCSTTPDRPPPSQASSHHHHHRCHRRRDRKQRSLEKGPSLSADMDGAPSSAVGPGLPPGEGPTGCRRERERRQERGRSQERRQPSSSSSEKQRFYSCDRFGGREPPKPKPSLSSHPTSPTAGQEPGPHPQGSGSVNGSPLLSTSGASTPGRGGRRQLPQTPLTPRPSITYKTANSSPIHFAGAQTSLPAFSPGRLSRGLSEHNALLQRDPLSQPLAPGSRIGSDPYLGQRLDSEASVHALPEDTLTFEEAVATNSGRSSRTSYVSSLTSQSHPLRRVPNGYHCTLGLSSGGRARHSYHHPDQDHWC
# Sequence (P54289 25-956 partner limits assumed): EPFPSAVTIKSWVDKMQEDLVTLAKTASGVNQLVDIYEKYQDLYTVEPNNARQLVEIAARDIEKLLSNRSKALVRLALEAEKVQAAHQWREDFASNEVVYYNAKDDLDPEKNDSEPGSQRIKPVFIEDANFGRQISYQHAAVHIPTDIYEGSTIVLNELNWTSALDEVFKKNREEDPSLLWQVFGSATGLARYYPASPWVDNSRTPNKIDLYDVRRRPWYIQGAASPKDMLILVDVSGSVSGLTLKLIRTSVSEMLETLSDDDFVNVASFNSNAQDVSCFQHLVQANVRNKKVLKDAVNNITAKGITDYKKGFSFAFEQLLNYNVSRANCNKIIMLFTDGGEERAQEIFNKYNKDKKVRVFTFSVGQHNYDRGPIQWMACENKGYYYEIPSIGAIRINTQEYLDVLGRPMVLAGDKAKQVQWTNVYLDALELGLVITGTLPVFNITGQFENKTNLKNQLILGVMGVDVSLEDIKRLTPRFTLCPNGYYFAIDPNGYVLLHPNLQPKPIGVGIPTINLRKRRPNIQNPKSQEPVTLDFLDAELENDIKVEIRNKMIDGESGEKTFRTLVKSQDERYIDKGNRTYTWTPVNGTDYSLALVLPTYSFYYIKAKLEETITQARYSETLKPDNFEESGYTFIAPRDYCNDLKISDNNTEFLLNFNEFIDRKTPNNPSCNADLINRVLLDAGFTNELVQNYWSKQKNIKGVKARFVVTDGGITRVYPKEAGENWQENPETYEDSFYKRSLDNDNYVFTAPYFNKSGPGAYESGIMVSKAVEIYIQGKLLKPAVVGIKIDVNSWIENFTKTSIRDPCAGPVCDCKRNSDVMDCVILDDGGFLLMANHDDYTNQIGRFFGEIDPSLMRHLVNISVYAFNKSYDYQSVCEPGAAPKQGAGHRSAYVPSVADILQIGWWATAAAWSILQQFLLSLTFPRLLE
# Sequence (P54289 957-1103 partner limits assumed): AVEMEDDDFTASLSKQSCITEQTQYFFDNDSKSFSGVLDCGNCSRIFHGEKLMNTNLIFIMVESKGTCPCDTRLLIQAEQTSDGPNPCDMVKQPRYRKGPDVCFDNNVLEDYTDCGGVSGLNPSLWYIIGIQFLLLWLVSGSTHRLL
# Sequence (P54284 whole entry partner): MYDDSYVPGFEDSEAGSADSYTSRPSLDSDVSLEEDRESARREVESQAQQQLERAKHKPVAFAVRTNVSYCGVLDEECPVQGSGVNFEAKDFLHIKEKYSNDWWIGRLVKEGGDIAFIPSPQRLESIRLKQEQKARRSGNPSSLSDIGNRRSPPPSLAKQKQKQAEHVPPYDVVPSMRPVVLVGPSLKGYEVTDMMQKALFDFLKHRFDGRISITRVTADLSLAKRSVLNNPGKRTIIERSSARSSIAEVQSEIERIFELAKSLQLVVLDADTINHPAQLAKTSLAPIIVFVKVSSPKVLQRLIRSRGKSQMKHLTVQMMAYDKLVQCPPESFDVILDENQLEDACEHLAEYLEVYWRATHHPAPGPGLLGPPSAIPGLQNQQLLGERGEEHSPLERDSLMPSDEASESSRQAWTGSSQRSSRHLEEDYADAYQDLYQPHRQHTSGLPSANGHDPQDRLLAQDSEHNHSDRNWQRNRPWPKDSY
# experimentalDetails: Assessment of calcium channel activity using FLIPR (Ca2+ influx in IMR32 cells)
# Type: cell-based
pIC50: −log10 of the molar value.
Quick reference: pIC50 of the listed items.

compound	measurementQualifier	pIC50
O=C(N[C@H]1CC[C@@H]2CN(c3ccc(F)cc3)C[C@@H]21)[C@@H]1C[C@@H](F)CN1	=	4.58
CCCC(C(=O)NC1CCC2CN(Cc3ccc(F)cc3)CC21)N(C)C(=O)OC(C)(C)C (single isomer, unassigned) [Example 315]	=	5.27
Cc1c[nH]c(C(=O)N[C@H]2CC[C@@H]3CN(c4cccc(C(F)(F)F)n4)C[C@@H]32)c1	=	6.00
CN[C@@H](CC(C)C)C(=O)N[C@H]1CC[C@H]2CN(Cc3ccccc3)C[C@H]21	<	4.52
Cc1c[nH]c(CN[C@H]2CC[C@@H]3CN(c4cccc(C(F)(F)F)n4)C[C@@H]32)n1	=	5.93
CC(C)C[C@H](NCC(C)(C)C)C(=O)N[C@H]1CC[C@@H]2CN(S(=O)(=O)c3ccc(F)cc3)C[C@@H]21	=	5.90
CCC[C@H](NC)C(=O)N[C@H]1CC[C@@H]2CN(c3cccc(OC(F)(F)F)c3)C[C@@H]21	=	5.89
FC(F)(F)c1cccc(N2C[C@H]3CC[C@H](NCc4nc(-c5ccccc5)[nH]c4Cl)[C@H]3C2)n1	=	5.67
CN[C@@H](CC(C)C)C(=O)N[C@H]1CC[C@@H]2CN(c3cc(F)ccc3C(F)F)C[C@@H]21	=	6.12
Cn1c(CN[C@H]2CC[C@@H]3CN(c4cccc(C(F)(F)F)n4)C[C@@H]32)cc2ccccc21	=	5.84
CC(C)COC(=O)N[C@@H](CC(C)C)C(=O)N[C@@H]1CC[C@H]2CN(Cc3cccc(C(F)(F)F)c3)C[C@H]21	=	6.00
CCC[C@H](NC)C(=O)N[C@H]1CC[C@@H]2CN(c3ccc(C(F)(F)F)cn3)C[C@@H]21	=	5.35
CN[C@@H](CC(C)C)C(=O)N[C@H]1CC[C@@H]2CN(c3ccc(C(F)(F)F)nn3)C[C@@H]21	=	4.65
O=C(N[C@@H]1CC[C@H]2CN(Cc3cccc(C(F)(F)F)c3)C[C@H]21)C(c1ccccc1)c1ccccc1 (relative stereo)	=	5.94
O=C(N[C@H]1CC[C@@H]2CN(c3cccc(C(F)(F)F)n3)C[C@@H]21)c1ccccc1O	=	5.77
CN[C@@H](CC(C)C)C(=O)N[C@@H]1CC[C@H]2CN(S(=O)(=O)c3cccc(C(F)(F)F)c3)C[C@H]21	=	5.84
CCC[C@H](NC)C(=O)N[C@@H]1CC[C@@H]2CN(Cc3ccccc3)C[C@@H]21	<	4.52
O=C(N[C@H]1CC[C@@H]2CN(c3cccc(C(F)(F)F)n3)C[C@@H]21)[C@H](O)C(F)(F)F	=	5.82
O=C(N[C@H]1CC[C@H]2CN(Cc3cccc(C(F)(F)F)c3)C[C@H]21)C1CCCC1 (relative stereo)	=	5.64
Cc1c(CN[C@H]2CC[C@@H]3CN(c4cccc(C(F)(F)F)n4)C[C@@H]32)[nH]c2ccc(F)cc12	=	5.83
N#Cc1ccccc1N1C[C@H]2CC[C@H](NC(=O)[C@@H]3C[C@@H](F)CN3)[C@H]2C1	=	4.83
CC(C)C(C(=O)N[C@H]1CC[C@@H]2CN(CCCc3ccccc3)C[C@@H]21)c1ccccc1 (stereo partly shown)	=	5.92
O=C(N[C@H]1CC[C@@H]2CN(c3cccc(C(F)(F)F)n3)C[C@@H]21)c1cc2ccccc2[nH]1	=	6.21
O=C(N[C@H]1CC[C@@H]2CN(c3cccc(C(F)(F)F)c3)C[C@@H]21)[C@@H]1C[C@@H](F)CN1	=	5.59
CN[C@@H](CC(C)C)C(=O)N[C@H]1CC[C@@H]2CN(c3ccc(SC(F)(F)F)cc3)C[C@@H]21	=	5.14
O=S(=O)(N[C@H]1CC[C@@H]2CN(c3cccc(C(F)(F)F)n3)C[C@@H]21)c1ccc(Cl)cc1	=	5.30
O=C(N[C@H]1CC[C@@H]2CN(c3ccccc3OC(F)(F)F)C[C@@H]21)[C@@H]1C[C@@H](F)CN1	=	5.67
FC(F)(F)c1cccc(N2C[C@H]3CC[C@H](NCc4cc5ccccc5[nH]4)[C@H]3C2)n1	=	5.65

====

# systemUnderTest: UniProt:Q00975
# experimentalDetails: Assessment of calcium channel activity using FLIPR (Ca2+ influx in IMR32 cells)
# Assay type: cell-based
# conditionLabel: read-out: IC50 (μM) or percent inhibition (* indicates 3 minute incubation, otherwise 60 minute); IC50; 60 minute pre-incubation with compound; IMR32 cells, 80 mM KCl depolarization
In this scheme, each record receives a class according to its IC50; the ranges are range A (below 1 µM), range B (1 µM to below 5 µM), range C (5 µM or more)

molecule	group
CC(C)C[C@H](NCC(C)(C)C)C(=O)N[C@H]1CC[C@@H]2CN(Cc3ccccc3)C[C@@H]21	range C
CN[C@@H](CC(C)C)C(=O)N[C@H]1CC[C@@H]2CN(Cc3ccc(C(F)(F)F)cc3)C[C@@H]21	range C
O=C(N[C@H]1CC[C@H]2CN(Cc3cc(C(F)(F)F)cc(C(F)(F)F)c3)C[C@H]21)C(C1CCCCC1)C1CCCCC1	range A
O=C(N[C@H]1CC[C@H]2CN(Cc3ccc(F)c(C(F)(F)F)c3)C[C@H]21)C(C1CCCCC1)C1CCCCC1	range A
CC(C)C(C(=O)N[C@@H]1CC[C@H]2CN(Cc3cccc(C(F)(F)F)c3)C[C@H]21)c1ccccc1 (stereo partly drawn)	range B
CC(C)C(C(=O)N[C@H]1CC[C@@H]2CN(CCC(c3ccc(F)cc3)c3ccc(F)cc3)C[C@@H]21)c1ccccc1 (stereo partly drawn)	range A
CCC[C@@H](C(=O)N[C@@H]1CC[C@@H]2CN(S(=O)(=O)c3ccc(C(F)(F)F)cc3)C[C@@H]21)N(C)C(=O)OC(C)(C)C	range B
CC(C)C(C(=O)N[C@@H]1CC[C@H]2CN(Cc3ccccc3)C[C@H]21)c1ccccc1 (stereo partly drawn)	range B
O=C(N[C@@H]1CC[C@H]2CN(Cc3cccc(C(F)(F)F)c3)C[C@H]21)C(c1ccc(F)cc1)c1ccc(F)cc1 (relative stereo)	range A
CCC[C@H](NCC(C)(C)C)C(=O)N[C@@H]1CC[C@H]2CN(Cc3ccccc3)C[C@H]21	range C
CCC[C@H](NC)C(=O)N[C@H]1CC[C@@H]2CN(S(=O)(=O)c3ccc(C(F)(F)F)cc3)C[C@@H]21	range B
CCC[C@H](NC)C(=O)N[C@H]1CC[C@@H]2CN(S(=O)(=O)c3ccc(C#N)cc3)C[C@@H]21	range C
CC(C)(C)C(C(=O)N[C@@H]1CC[C@H]2CN(Cc3cccc(C(F)(F)F)c3)C[C@H]21)c1ccccc1 (relative stereo)	range A
CC(C)(C)C[C@H](N)C(=O)N[C@H]1CC[C@@H]2CN(Cc3ccccc3)C[C@@H]21	range C
O=C(N[C@H]1CC[C@H]2CN(Cc3ccncc3)C[C@H]21)C(C1CCCCC1)C1CCCCC1	range B
COc1ccccc1CN1C[C@H]2CC[C@H](NC(=O)C(c3ccccc3)C(C)C)[C@H]2C1 (stereo partly drawn)	range B
O=S(=O)(c1cccc(C(F)(F)F)c1)N1C[C@H]2CC[C@H](NC(c3ccccc3)c3ccccc3)[C@H]2C1	range B
O=S(=O)(N[C@H]1CC[C@H]2CN(Cc3cccc(C(F)(F)F)c3)C[C@H]21)c1cccc(C(F)(F)F)c1 (relative stereo) [Example 185]	range A
O=C(N[C@H]1CC[C@H]2CN(Cc3ccccc3)C[C@H]21)C(C1CCCCC1)C1CCCCC1	range C
CC(C)[C@@H](CC(=O)N[C@H]1CC[C@@H]2CN(S(=O)(=O)c3cccc(C(F)(F)F)c3)C[C@@H]21)N(C)C	range B
CC[C@H](C(=O)N[C@H]1CC[C@H]2CN([C@@H](C)c3ccccc3)C[C@H]21)c1ccccc1	range B
CCN(CC)[C@H]1CC[C@@H]2CN(S(=O)(=O)c3ccc(C(F)(F)F)cc3)C[C@@H]21	range C
CC(C)C[C@@H](NC(=O)OC(C)(C)C)C(=O)N[C@H]1CC[C@H]2CN(Cc3cccc(C(F)(F)F)c3)C[C@H]21 (stereo in doubt)	range A
CN[C@@H](CC(C)C)C(=O)N[C@H]1CC[C@H]2CN(Cc3cccc(C(F)(F)F)c3)C[C@H]21	range B
CC(C)C[C@H](NS(C)(=O)=O)C(=O)N[C@@H]1CC[C@H]2CN(Cc3cccc(C(F)(F)F)c3)C[C@H]21	range B
CCC[C@H](NC)C(=O)N[C@H]1CC[C@@H]2CN(Cc3ccc(C(F)(F)F)cc3)C[C@@H]21	range C
O=C(N[C@@H]1CC[C@H]2CN(Cc3ccccc3)C[C@H]21)C(c1ccccc1)C1CCCC1 (relative stereo) [Example 8]	range B
